- tested.target: UniProt Q5VWK5
- Sequence (Q5VWK5 whole entry): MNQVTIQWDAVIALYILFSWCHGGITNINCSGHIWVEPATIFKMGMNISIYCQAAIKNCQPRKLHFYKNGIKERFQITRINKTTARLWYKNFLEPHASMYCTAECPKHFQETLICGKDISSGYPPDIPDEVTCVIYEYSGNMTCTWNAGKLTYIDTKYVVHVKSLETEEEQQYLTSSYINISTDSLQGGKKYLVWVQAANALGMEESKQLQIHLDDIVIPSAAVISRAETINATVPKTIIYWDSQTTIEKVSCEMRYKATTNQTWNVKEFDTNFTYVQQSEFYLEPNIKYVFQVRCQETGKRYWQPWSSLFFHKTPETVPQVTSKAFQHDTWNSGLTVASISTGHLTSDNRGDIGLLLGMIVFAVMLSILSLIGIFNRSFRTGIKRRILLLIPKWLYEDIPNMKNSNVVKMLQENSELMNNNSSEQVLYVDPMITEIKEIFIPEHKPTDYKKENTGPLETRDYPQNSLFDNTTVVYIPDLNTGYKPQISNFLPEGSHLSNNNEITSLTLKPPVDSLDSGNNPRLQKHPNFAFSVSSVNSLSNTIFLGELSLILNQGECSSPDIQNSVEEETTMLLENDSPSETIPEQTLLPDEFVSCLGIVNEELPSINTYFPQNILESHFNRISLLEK
- assay.overview: Inhibition of interleukin-23 binding to human interleukin-23 receptor incubated for 2 hrs by competitive binding ELISA
Where a SMILES comes first, the peptide text is derived from it.
Could you please report measured IC50 for the items listed next?

The recorded IC50 for entry CC(=O)N[C@@H](CCCNC(=N)N)C(=O)N[C@@H](CCC(=O)O)C(=O)NCC(=O)N[C@H](C(=O)N[C@@H](CS)C(=O)N[C@@H](CO)C(=O)N[C@H](C(=O)N[C@@H](Cc1c[nH]c2ccccc12)C(=O)N[C@@H](CCCCN)C(=O)N[C@@H](CS)C(=O)N[C@@H](Cc1ccc(O)cc1)C(=O)N[C@@H](Cc1c[nH]c2ccccc12)C(=O)N[C@@H](Cc1cnc[nH]1)C(=O)N[C@H](C(=O)N[C@@H](Cc1ccccc1)C(=O)NCC(N)=O)[C@@H](C)O)[C@@H](C)O)[C@@H](C)O (Ac-REGTCSTWKCYWHTFG-NH2) equals 0.5 to 1 µM

Kindly note the recorded IC50 for `CC(=O)N[C@@H](CS)C(=O)N[C@@H](C)C(=O)N[C@@H](CC(=O)O)C(=O)N[C@@H](Cc1c[nH]c2ccccc12)C(=O)N[C@H](C(=O)N[C@@H](CS)C(=O)N[C@@H](Cc1ccc(O)cc1)C(=O)N[C@@H](Cc1c[nH]c2ccccc12)C(=O)N[C@@H](Cc1cnc[nH]1)C(=O)N[C@H](C(=O)N[C@@H](CCCCN)C(=O)NCC(=O)O)[C@@H](C)O)C(C)C` , which is > 1 µM

IC50 reading for CC(=O)N[C@@H](CS)C(=O)N[C@@H](C)C(=O)N[C@@H](CC(=O)O)C(=O)N[C@@H](Cc1c[nH]c2ccccc12)C(=O)N[C@H](C(=O)N[C@@H](CS)C(N)=O)C(C)C (Ac-CADWVC-NH2) : > 1 µM

IC50 measured on CC(=O)N[C@@H](CS)C(=O)N[C@@H](C)C(=O)N[C@@H](CC(=O)O)C(=O)N[C@@H](Cc1c[nH]c2ccccc12)C(=O)N[C@H](C(=O)N[C@@H](CS)C(=O)N[C@@H](Cc1ccc(O)cc1)C(=O)N[C@@H](Cc1c[nH]c2ccccc12)C(=O)N[C@@H](Cc1cnc[nH]1)C(=O)N[C@@H](CCC(=O)O)C(=O)N[C@@H](Cc1cnc[nH]1)C(=O)N[C@@H](CO)C(=O)N[C@@H](CCC(=O)O)C(=O)N[C@@H](CCCNC(=N)N)C(=O)N[C@H](C(=O)NCC(N)=O)C(C)C)C(C)C (Ac-CADWVCYWHEHSERVG-NH2) = 0.5 to 1 µM
